// provenance: PubChem BioAssay

composite z-score reference
# Tested on: Fibrinogen (Alexa647-labelled)
# test details: fibrinogen binders on compound microarrays, profiling panel, artefact control for SMM control-protein annotation, biochemical, small-molecule microarray, 635/667 nm fluorescence (AID 1131);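 also: z-score merges 667 nm fluorescence with per-spot signal-to-noise over triplicate slides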
# applied conditions: fibrinogen-A647 binding fluorescence, higher = more signal
endpoint name: composite z-score

>>> val("C=C(COC)C(=O)CC[C@H](OC(C)=O)c1ccc(OCCO)cc1")
-0.0148
>>> val("O=C1C2C=CC(C(O)c3ccc(I)cc3)N(Nc3ccccc3)C2C(=O)N1c1ccccc1 (centres undefined)")
0.907
>>> val("COC(=O)c1c2oc(c1C(=O)OC)C(=O)N1CCC[C@H]1Cn1nncc1CN(Cc1ccccc1)C(=O)N[C@H](CO)CC2")
0.676
>>> val("CCN(CC)c1ccc(N2CC=CC34O[C@@H]5C=CCCOC(=O)C5[C@H]3C(=O)N(CCO)[C@@H]4C2=O)cc1 (some centres undefined)")
-1.21

---

# test details: adipocyte viability effects, profiling panel, cell-based, 3T3-L1 adipocytes, calcein-AM fluorescence, 48 h, basal (AID 1163); also: test concentration not given here
# applied conditions: 3T3-L1 adipocytes viability, higher = more signal
Field: label. Allowed values: TRUE (z-score < -0.8) or FALSE (z-score >= -0.8).

>>> category("C=C[C@@H](C)[C@H](O)c1ccc(OCCO)cc1")
"FALSE"
>>> category("C=CCC(OC(C)=O)[C@@H]1[C@@H](N(Cc2cccc3ccccc23)C(=O)c2cccc3ccccc23)c2cc(OCCCO)ccc2N1C(=O)c1ccc2ccccc2c1 (stereo not given in full)")
"FALSE"
>>> category("COc1ccc(C(O)C2C=CC3C(=O)N(c4ccccc4)C(=O)C3N2Nc2ccccc2)cc1 (stereo not given)")
"TRUE"
>>> category("C=C[C@H](C)[C@H](OC(=O)Nc1ccc(OC)cc1)c1ccc(OCCO)cc1")
"FALSE"

---

# system name: Fibroblast growth factor 10 (Homo sapiens)
# test details: FGF10 binders on small-molecule microarrays, primary screen, biochemical, small-molecule microarray, 635 nm fluorescence (AID 1102)
# applied conditions: FGF10 binding, fluorescence 635 nm, higher = more signal
composite z-score reference
endpoint name: composite z-score

>>> val("CN1C(=O)C2C=CC(C(O)c3ccc(F)cc3)N(NC(=O)OC(C)(C)C)C2C1=O (centres undefined)")
0.45
>>> val("COCCOC(=O)N1C(=O)[C@@]2(c3cc(C#CC4=CCCCC4)ccc31)[C@H](c1ccc(O)cc1)N1[C@H](c3ccccc3)[C@H](c3ccccc3)OC(=O)[C@H]1[C@@H]2C(=O)NC[C@H](O)c1ccccc1")
1.12
>>> val("COc1cc2c(cc1O)C(c1cccs1)N(Cc1sc3ccccc3c1Cl)CC2 (centres undefined)")
1.46
>>> val("CC(C)OC(=O)CC(=O)CC(O)c1ccc([N+](=O)[O-])cc1 (centres undefined)")
0.314

---

# system name: Fibroblast growth factor 2 (Homo sapiens) (UniProt P09038)
# Sequence (P09038 whole entry, looked up): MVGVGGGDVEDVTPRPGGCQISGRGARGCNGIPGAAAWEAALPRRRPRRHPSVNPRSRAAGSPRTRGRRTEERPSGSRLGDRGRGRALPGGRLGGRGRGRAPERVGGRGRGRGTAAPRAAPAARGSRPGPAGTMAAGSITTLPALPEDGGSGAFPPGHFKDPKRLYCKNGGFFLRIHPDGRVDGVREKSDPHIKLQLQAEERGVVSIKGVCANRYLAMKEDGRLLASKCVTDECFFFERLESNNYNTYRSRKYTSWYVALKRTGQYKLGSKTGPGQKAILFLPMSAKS
# test details: FGF2 binders on small-molecule microarrays, primary screen, biochemical, small-molecule microarray, 635/667 nm fluorescence (AID 1133)
# applied conditions: small-molecule microarray binding, FGF2, fluorescence 635/667; higher = more signal
endpoint name: composite z-score

>>> val("COCCOC(=O)N1C(=O)[C@@]2(c3cc(C#Cc4ccc(OC)cc4)ccc31)[C@H](C(=O)NC[C@H](O)c1ccccc1)[C@H]1C(=O)O[C@H](c3ccccc3)[C@H](c3ccccc3)N1[C@@H]2c1ccc(OCCO)cc1")
1.01
>>> val("C=CCNC(=O)[C@H]1[C@@H]2C(=O)O[C@@H](c3ccccc3)[C@@H](c3ccccc3)N2[C@@H](c2ccc(OCCO)cc2)[C@]12C(=O)Nc1ccc(C#CCNC(N)=O)cc12")
1.05
>>> val("CCOC(=O)C=Cc1ccccc1O")
0.292
>>> val("O=C(NCC(O)CO)[C@@]1(CCS(=O)(=O)c2ccccc2)COC(c2ccc(OCCCO)cc2)=N1 (some centres not stated)")
1.28
>>> val("COc1ccc(C#Cc2ccc3c(c2)[C@]2(C(=O)N3)[C@H](C(=O)N3CCCCCCC3)[C@H]3C(=O)O[C@H](c4ccccc4)[C@H](c4ccccc4)N3[C@@H]2c2ccc(O)cc2)cc1")
0.709
>>> val("CCCNC(=O)[C@@]1(Sc2ccc(C)cc2)CC(=O)N(C(C)C)[C@@H]1c1ccc(CO)cc1I")
-1.5
>>> val("CN(C)C(=O)[C@@]1(Cc2ccccc2)COC(c2ccc(OCCCO)cc2)=N1")
-0.0827

---

# test details: PSAC antagonists in infected red cells, primary screen, cell-based, P. falciparum Indochina, OD700, 1 h (AID 1154)
# applied conditions: P. falciparum Indochina infected RBC osmotic lysis, higher = more signal, called active from +8 up or from −8 down
Activity calls are given as the source filed them.
endpoint name: z-score

>>> val("COc1cc(NN2C(C(O)c3ccccc3)C=CC3C(=O)N(C)C(=O)C32)cc(OC)c1OC (centres undefined)")
"0.758 (inactive)"
>>> val("COCCCNC(=O)[C@@]1(Sc2ccc(C)cc2)CC(=O)N(Cc2ccccc2Cl)[C@@H]1c1ccc(CO)cc1I")
"3.44 (inactive)"
>>> val("COCCOC(=O)N1C(=O)[C@@]2(c3cc(C#CCC(C(=O)OC)C(=O)OC)ccc31)[C@H](c1ccc(O)cc1)N1[C@H](c3ccccc3)[C@H](c3ccccc3)OC(=O)[C@H]1[C@@H]2C(=O)NC[C@H](O)c1ccccc1")
"1.67 (inactive)"
>>> val("CC(C)[Si]1(C(C)C)OCc2cc(-c3ccc(-c4ccc(Cl)c(Cl)c4)o3)nc(CCc3ccccc3)c21")
"1.58 (inactive)"

---

# test details: compound binding in COS7 lysate, probe aLAP1, primary screen, cell lysate, small-molecule microarray (AID 1124);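 also: lysate comes from COS7 cells expressing LAP1 and is applied at 0.3 µg/mL; score merges spot fluorescence near 667 nm with signal-to-noise over triplicate slides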
# applied conditions: probe aLAP1, fluorescence, higher = more signal
endpoint name: composite z-score

>>> val("CC(C)C[C@@H]1NC(=O)[C@@]23C(=O)N[C@@H](Cc4ccccc4)C2[C@H](C)[C@@]2(C)O[C@H]2C3/C=C/C/C=C\\CNC(=O)[C@@H](C)NC1=O (stereo partly drawn)")
-0.217
>>> val("O=C1C2C=CC(C(O)c3ccco3)N(Nc3ccccc3)C2C(=O)N1c1ccccc1 (stereo not drawn)")
-0.102
>>> val("O=C1C2C=CC(C(O)c3cc(C(F)(F)F)cc(C(F)(F)F)c3)N(Nc3ccccc3F)C2C(=O)N1c1ccccc1 (stereo not drawn)")
1.06
>>> val("CCCCCCCCCCC(O)C1C=CC2C(=O)N(C)C(=O)C2N1Nc1cc(OC)c(OC)c(OC)c1 (stereo not drawn)")
0.148
>>> val("[N-]=[N+]=NCc1ccccc1[C@@H]1OC(c2ccc(OCCCO)cc2)=N[C@]1(Cc1ccccc1N=[N+]=[N-])C(=O)NCCN1CCOCC1")
1.01
>>> val("CCOC(=O)C[C@H]1[C@H](OC(=O)c2ccc(-c3ccccc3)cc2)[C@@H](NC(=O)Cc2ccc(OC)cc2)c2cc(OCCCO)ccc2N1C(=O)Cc1ccc(OC)cc1")
0.234
>>> val("COc1cc(NN2C(C(O)c3ccc(I)cc3)C=CC3C(=O)N(c4ccccc4)C(=O)C32)cc(OC)c1OC (stereo not drawn)")
0.0865
>>> val("COCCOC(=O)N1C(=O)[C@@]2(c3cc(C#CC4(O)CCCCCC4)ccc31)[C@H](c1ccc(OCCO)cc1)N1[C@H](c3ccccc3)[C@H](c3ccccc3)OC(=O)[C@H]1[C@@H]2C(=O)Nc1nc2ccccc2s1")
0.388

---

# test details: compound binding in COS7 lysate, probe aLAP1, primary screen, cell lysate, small-molecule microarray (AID 1124);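 also: lysate comes from COS7 cells expressing LAP1 and is applied at 0.3 µg/mL; score merges spot fluorescence near 667 nm with signal-to-noise over triplicate slides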
# applied conditions: probe aLAP1, fluorescence, higher = more signal
composite z-score reference
endpoint name: composite z-score

>>> val("COCC(=C=CC[C@@H](O)c1ccc(OCCO)cc1)CCO")
0.83
>>> val("[N-]=[N+]=NCc1ccccc1[C@H]1OC(c2ccc(OCCCO)cc2)=N[C@@]1(CCS(=O)(=O)c1ccccc1)C(=O)NCc1ccccc1")
0.0714
>>> val("C=CCC(OC(C)=O)[C@@H]1[C@@H](N(Cc2ccc(-c3cccc(C(F)(F)F)c3)o2)C(=O)c2cccc3ccccc23)c2cc(OCCCO)ccc2N1C(=O)Cc1ccc(OC)cc1 (stereo partly specified)")
0.0827
>>> val("C=C(/C(=C/C[C@@H](OC(C)=O)c1ccc(OCCO)cc1)c1cc(C(=O)OC)ccc1OC)C(C)C")
1.2
>>> val("COc1ccc([Si](C)(C)[C@@H]2[C@@H](CC(=O)N3Cc4ccccc4C[C@H]3CO)O[C@]3(C(=O)N(c4ccccc4)c4ccccc43)[C@H]2C)cc1")
0.339
>>> val("O=C(N1CCOCC1)[C@@]1(CCS(=O)(=O)c2ccccc2)N=C(c2ccc(OCCCO)cc2)O[C@H]1c1ccccc1")
-0.152
>>> val("C=CCC(OC(C)=O)[C@@H]1[C@@H](N(Cc2cccc3ccccc23)C(=O)Cc2ccc(F)cc2)c2cc(OCCCO)ccc2N1C(=O)c1ccc(-c2ccccc2)cc1 (stereo partly specified)")
0.505
>>> val("Cc1ccc([C@H]2C(C(=O)O)=C[C@@H](C(C)(C)C)N2S(=O)(=O)c2ccc(C)cc2)cc1")
0.868
>>> val("COc1ccc([Si](C)(C)[C@H]2[C@H](CCO)O[C@@]3(C(=O)N(Cc4ccccc4)c4ccc(N5C(=O)c6ccccc6Oc6ccccc65)cc43)[C@@H]2C)cc1")
0.62
>>> val("COC(=O)C(CC#Cc1ccc2c(c1)[C@]1(C(=O)N2)[C@H](C(=O)Nc2nc3ccccc3s2)[C@H]2C(=O)O[C@H](c3ccccc3)[C@H](c3ccccc3)N2[C@@H]1c1ccc(OCCO)cc1)C(=O)OC")
1.04
>>> val("COc1cccc(/C=C(\\C#N)C(=O)Nc2c(C)n(C)n(-c3ccccc3)c2=O)c1")
-0.0921
>>> val("COCCOC(=O)N1C(=O)[C@@]2(c3cc(C#CC4=CCCCC4)ccc31)[C@H](C(=O)N1CCCCCCC1)[C@H]1C(=O)O[C@H](c3ccccc3)[C@H](c3ccccc3)N1[C@@H]2c1ccc(OCCO)cc1")
0.722
>>> val("CC(C)c1ccc(NN2C(C(O)Cc3ccccc3)C=CC3C(=O)N(c4ccccc4)C(=O)C32)cc1 (stereo unspecified)")
0.0643
>>> val("CN1C(=O)C2C=CC(C(O)c3ccc(I)cc3)N(Nc3ccccc3)C2C1=O (stereo unspecified)")
0.595
>>> val("COCCOC(=O)N1C(=O)[C@@]2(c3ccccc31)[C@H](c1ccc(OCCO)cc1)N1[C@H](c3ccccc3)[C@H](c3ccccc3)OC(=O)[C@H]1[C@@H]2C(=O)N1CCCCCCC1")
1.22
>>> val("COc1ccc(NC(=O)O[C@H]2[C@@H]3OC(=O)[C@H](Cc4cccc(Br)c4)C/C=C/C[C@@H](Cc4cccc(Br)c4)C(=O)O[C@H]3[C@@H](OC)O[C@@H]2CO)cc1")
0.782
>>> val("O=C1C[C@@](C(=O)NCC(F)(F)F)(c2ccc([N+](=O)[O-])cc2)[C@@H](c2ccc(CO)cc2)N1CC12CC3CC(CC(C3)C1)C2")
-0.0251
>>> val("CCCCNC(=O)c1ccc(C#C[Si](C(C)C)(C(C)C)C(C)C)c(OC(C)=O)c1")
-0.18
>>> val("C=CCNC(=O)[C@H]1[C@@H]2C(=O)O[C@@H](c3ccccc3)[C@@H](c3ccccc3)N2[C@@H](c2ccc(OCCO)cc2)[C@]12C(=O)N(C(=O)OCCOC)c1ccc(C#Cc3ccc(OC)cc3)cc12")
0.636
>>> val("CCCCCN1CC=CC23O[C@@H]4/C=C\\CCC(C)OC(=O)C4[C@H]2C(=O)N(CCCCCCO)[C@@H]3C1=O (stereo partly specified)")
1.57
>>> val("COc1ccc([Si](C)(C)[C@@H]2[C@@H](CCn3cc([C@H](O)c4ccccc4)nn3)O[C@]3(C(=O)N(Cc4cccc(N5C(=O)c6cccc7cccc5c67)c4)c4ccccc43)[C@H]2C)cc1")
-0.64
>>> val("COCCOC(=O)N1C(=O)[C@@]2(c3cc(C#Cc4ccc(OC)cc4)ccc31)[C@H](c1ccc(OCCO)cc1)N1[C@H](c3ccccc3)[C@H](c3ccccc3)OC(=O)[C@H]1[C@@H]2C(=O)Nc1nc2ccccc2s1")
0.176
>>> val("COC(=O)[C@@]1(Cc2ccc(F)cc2)[C@H]2c3cc(C(=O)N(C)C)n(Cc4ccc(O)c(OC)c4)c3C[C@H]2CN1C(=O)c1ccccc1")
-0.0606
>>> val("C=CCNC(=O)[C@@H]1[C@H]2C(=O)O[C@H](c3ccccc3)[C@H](c3ccccc3)N2[C@H](c2ccc(O)cc2)[C@@]12C(=O)N(C(=O)OCCOC)c1ccc(C#CCCO)cc12")
0.459
>>> val("CC(=O)n1cc(C(O)C2C=CC3C(=O)N(c4ccccc4)C(=O)C3N2Nc2ccc(C(C)C)cc2)c2ccccc21 (stereo unspecified)")
0.503
>>> val("[N-]=[N+]=Nc1ccccc1C[C@@]1(C(=O)O)N=C(c2ccc(OCCCO)cc2)O[C@@H]1c1ccccc1N=[N+]=[N-]")
1.66
